System: LXRa:RXRa (NR concentration 270 nM, RXRa partner concentration 90 nM)
assay name: PBM binding z-score (relative to random genomic background probes); higher = stronger binding; sequences stand for … in GC…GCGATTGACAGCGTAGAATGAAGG
Returns Condition met if the recorded PBM binding z-score is greater than or equal to 3, and Condition not met otherwise.

Use the examples below as a reference point.
Is the recorded value of PBM binding z-score equal to or greater than 3 for this sequence? `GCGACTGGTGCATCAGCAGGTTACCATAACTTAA` Condition not met

Is the recorded value of PBM binding z-score equal to or greater than 3 for this sequence? `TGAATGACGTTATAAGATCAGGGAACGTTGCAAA` Condition not met

Is the recorded value of PBM binding z-score equal to or greater than 3 for this sequence? `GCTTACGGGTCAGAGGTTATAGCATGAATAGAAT` Condition met

Is the recorded value of PBM binding z-score equal to or greater than 3 for this sequence? `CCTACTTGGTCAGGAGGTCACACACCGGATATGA` Condition met

Is the recorded value of PBM binding z-score equal to or greater than 3 for this sequence? `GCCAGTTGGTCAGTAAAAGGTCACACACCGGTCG` Condition met

More entries:
Is the recorded value of PBM binding z-score equal to or greater than 3 for this sequence? `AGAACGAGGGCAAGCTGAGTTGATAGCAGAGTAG` Condition not met
